meta.source: patent US20230298697A1

# Tested on: Mycobacterium tuberculosis H37Rv
# MIC50 values compiled below

As a guide, the following entries are already answered.
Molecule: CO[C@H]1/C=C/O[C@@]2(C)Oc3c(C)c(O)c4c(O)c(c(/C=N/N5CCN(C)CC5)c(O)c4c3C2=O)NC(=O)/C(C)=C\C=C\[C@H](C)[C@H](O)[C@@H](C)[C@@H](O)[C@@H](C)[C@H](OC(C)=O)[C@@H]1C [RIF, Rifampicin]
MIC50: 0.02 µg/mL

Molecule: COc1nc2ccc(Br)cc2cc1[C@@H](c1ccccc1)[C@@](O)(CCN(C)C)c1cccc2ccccc12 [BDQ, Bedaquiline]
MIC50: 1.61 µg/mL

Molecule: NNC(=O)c1ccncc1 [INH, Isoniazid]
MIC50: 0.2 µg/mL

Qu. Record lookup: for Mycobacterium tuberculosis H37Rv, what MIC50 belongs to CC(=O)NC[C@H]1CN(c2ccc(N3CCOCC3)c(F)c2)C(=O)O1 [LZD, Linezolid] ?
Ans. 1.13 µg/mL

Qu. Record lookup: for Mycobacterium tuberculosis H37Rv, what MIC50 belongs to O=[N+]([O-])c1cn2c(n1)OC[C@@H](OCc1ccc(OC(F)(F)F)cc1)C2 [PA824, Pretomanid] ?
Ans. 0.15 µg/mL

Qu. Record lookup: for Mycobacterium tuberculosis H37Rv, what MIC50 belongs to COc1c(N2C[C@@H]3CCCN[C@@H]3C2)c(F)cc2c(=O)c(C(=O)O)cn(C3CC3)c12 [MXF, Moxifloxacin hydrocholoride] ?
Ans. 0.07 µg/mL
